# system: HDAC7 (Homo sapiens, UniProt Q8WUI4)
# Sequence (Q8WUI4 1-952): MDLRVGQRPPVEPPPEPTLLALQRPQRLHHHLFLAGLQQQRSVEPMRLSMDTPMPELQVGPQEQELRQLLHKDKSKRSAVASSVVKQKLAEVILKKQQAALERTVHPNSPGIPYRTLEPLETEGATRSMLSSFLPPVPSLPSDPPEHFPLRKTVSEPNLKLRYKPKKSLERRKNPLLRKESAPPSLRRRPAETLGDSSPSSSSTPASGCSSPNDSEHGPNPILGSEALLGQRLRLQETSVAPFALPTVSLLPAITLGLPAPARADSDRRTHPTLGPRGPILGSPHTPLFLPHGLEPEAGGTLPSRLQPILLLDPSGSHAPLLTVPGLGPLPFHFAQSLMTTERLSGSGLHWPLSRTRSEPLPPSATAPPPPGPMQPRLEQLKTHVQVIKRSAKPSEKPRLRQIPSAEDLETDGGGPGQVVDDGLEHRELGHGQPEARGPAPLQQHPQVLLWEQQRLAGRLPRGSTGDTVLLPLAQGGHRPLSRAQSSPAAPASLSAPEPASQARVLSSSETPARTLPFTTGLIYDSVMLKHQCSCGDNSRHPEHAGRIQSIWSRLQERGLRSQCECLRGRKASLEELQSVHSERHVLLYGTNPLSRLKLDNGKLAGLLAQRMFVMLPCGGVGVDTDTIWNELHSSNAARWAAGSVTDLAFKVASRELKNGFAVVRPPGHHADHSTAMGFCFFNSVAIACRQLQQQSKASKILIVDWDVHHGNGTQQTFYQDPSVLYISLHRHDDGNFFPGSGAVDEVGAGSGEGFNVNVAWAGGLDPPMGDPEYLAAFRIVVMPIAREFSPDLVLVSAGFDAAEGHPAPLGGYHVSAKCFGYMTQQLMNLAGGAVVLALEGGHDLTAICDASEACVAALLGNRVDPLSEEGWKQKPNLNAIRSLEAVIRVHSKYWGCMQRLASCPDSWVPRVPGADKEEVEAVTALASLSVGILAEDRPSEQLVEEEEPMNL
# experimental_details: Two-step fluorescence assay for determination of IC50
# Assay type: biochemical
# test_context: ε-acetylated lysine substrate, trypsin release of 7-amino-4-methylcoumarin; four parameter fit; read-out: IC50 values HDAC7
Kindly apply the following: class 1 if IC50 is less than 30 µM, class 0 in every other case.

{"compound": "O=C(NO)C(F)(F)C(F)(F)C(F)(F)C(F)(F)C(F)(F)C(F)(F)C(=O)Nc1ccc2ccc3cccc4ccc1c2c34 [LU234]", "class": "class 0"}
{"compound": "O=C(NO)C(F)(F)C(F)(F)C(F)(F)C(F)(F)C(F)(F)C(F)(F)C(=O)Nc1nc(-c2ccccc2)cs1 [LU235]", "class": "class 1"}
{"compound": "O=C(NO)C(F)(F)C(F)(F)C(F)(F)C(F)(F)C(F)(F)C(F)(F)C(=O)Nc1ccc(I)cc1 [LU227]", "class": "class 1"}
{"compound": "O=C(NO)C(F)(F)C(F)(F)C(F)(F)C(F)(F)C(F)(F)C(F)(F)C(=O)Nc1ccc(-c2cn(-c3ccccc3)nn2)cc1 [LU 233]", "class": "class 0"}
{"compound": "O=C(NO)C(F)(F)C(F)(F)C(F)(F)C(F)(F)C(F)(F)C(F)(F)C(=O)Nc1ccc(Cl)cc1 [LU223]", "class": "class 1"}
{"compound": "CC(=O)Nc1ccc(NC(=O)C(F)(F)C(F)(F)C(F)(F)C(F)(F)C(F)(F)C(F)(F)C(=O)NO)cc1 [LU224]", "class": "class 1"}
{"compound": "O=C(NO)C(F)(F)C(F)(F)C(F)(F)C(F)(F)C(F)(F)C(F)(F)C(=O)Nc1ccc(-c2cnnn2-c2ccccc2)cc1 [LU236]", "class": "class 1"}
{"compound": "N#Cc1ccc(NC(=O)C(F)(F)C(F)(F)C(F)(F)C(F)(F)C(F)(F)C(F)(F)C(=O)NO)cc1 [LU225 A]", "class": "class 0"}
{"compound": "CCc1cccc(NC(=O)C(F)(F)C(F)(F)C(F)(F)C(F)(F)C(F)(F)C(F)(F)C(=O)NO)c1 [LU232]", "class": "class 1"}

Values were extracted from patent EP2486923B1.
